FYI, the data here is from patent US10774071B2.

- testedTarget: PD-1/PD-L1 (Homo sapiens (Human), UniProt Q9NZQ7)
- Sequence (Q9NZQ7 19-238): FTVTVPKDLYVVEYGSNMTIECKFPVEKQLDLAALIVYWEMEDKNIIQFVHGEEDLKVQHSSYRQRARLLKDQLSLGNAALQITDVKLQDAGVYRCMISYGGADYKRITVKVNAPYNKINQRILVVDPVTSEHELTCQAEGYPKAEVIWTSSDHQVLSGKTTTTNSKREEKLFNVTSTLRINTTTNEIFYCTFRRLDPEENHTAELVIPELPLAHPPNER
- testMethodNotes: PD-1/PD-L1 biochemical protein-protein interaction assay (ALPHA)
- Assay type: binding
- measurementSetup: 0.3 nM His tagged PD-L1, 2.5 nM biotinylated Fc-PD-1, Table 3B, read-out: IC50 PD-L1-PD1
- Method: Compounds were tested in biochemical protein-protein interaction assays to determine if they can specifically block the interaction between the extracellular domains of PD-1/PD-L1 or CTLA/CD80. Binding of the protein pairs is measured using a bead based Amplified Luminescent Proximity Homogeneous Assay (ALPHA) platform. […] Final protein concentration in the assays were 0.3 nM (His tagged PD-L1), 2.5 nM (biotinylated Fc-PD-1), 1 nM (His tagged CTLA4) and 1 nM (biotinylated CD80).
Reported pIC50 values for a set of molecules
Please note pIC50 is a logarithmic value: minus log10 of concentration in mol/L. Answer with that number alone.

// solved cases for pIC50 follow
{"molecule": "CC[C@](C)(NCc1cc(C(F)(F)F)c(O[C@H]2CCc3c(-c4cccc(-c5ccc(CNC[C@@H]6CCC(=O)N6)c(OC)n5)c4Cl)cccc32)nc1OC)C(=O)O [B-236]", "measuredMetric": "pIC50", "reportedValue": 10.19}
{"molecule": "COc1nc(-c2cccc(-c3cccc4c3CC[C@@H]4Oc3nc(OC)c(CN4CCCC(C(=O)O)CC4)cc3Cl)c2Cl)ccc1CNC[C@@H]1CCC(=O)N1 (some centres unmarked) [B-177]", "measuredMetric": "pIC50", "reportedValue": 10.19}
{"molecule": "COc1nc(-c2cccc(-c3cccc4c3CC[C@@H]4Oc3nc(OC)c(CN4C[C@H]5C[C@H]5[C@H]4C(=O)O)cc3C(F)(F)F)c2Cl)ccc1CNC[C@@H]1CCC(=O)N1 [B-234]", "measuredMetric": "pIC50", "reportedValue": 10.19}
{"molecule": "CNC(=O)C1CCN(Cc2cc(Cl)c(O[C@H]3CCc4c(-c5cccc(-c6ccc(CNC[C@@H]7CCC(=O)N7)c(OC)n6)c5Cl)cccc43)nc2OC)C1 (some centres unmarked) [B-88]", "measuredMetric": "pIC50", "reportedValue": 10.19}
{"molecule": "COc1nc(-c2cccc(-c3cccc4c3CC[C@@H]4Oc3nc(OC)c(CN4CC5(C(=O)O)CCC4CC5)cc3C(F)(F)F)c2Cl)ccc1CNC[C@@H]1CCC(=O)N1 [B-61]", "measuredMetric": "pIC50", "reportedValue": 10.19}

Turning to the following molecule.
[ask] Which value of pIC50 has been reported for CCC1C(C(=O)O)CCN1Cc1cc(Cl)c(O[C@H]2CCc3c(-c4cccc(-c5ccc(CNC[C@@H]6CCC(=O)N6)c(OC)n5)c4Cl)cccc32)nc1OC (some centres unmarked) [B-186] in the records?
[reply] 10.19

* * *

- testedTarget: PD-1/PD-L1 (Homo sapiens (Human), UniProt Q9NZQ7)
- testMethodNotes: PD-1/PD-L1 biochemical protein-protein interaction assay (ALPHA)
- Format: binding
- measurementSetup: 0.3 nM His tagged PD-L1, 2.5 nM biotinylated Fc-PD-1, Table 3B, read-out: IC50 PD-L1-PD1
measuredMetric: IC50 (nM)
Lab book: enter the figure in nM, no units written.

Here is how some compounds turned out for IC50.
{"compound": "COc1nc(O[C@H]2CCc3c(-c4cccc(-c5cc(C)c(CN6CC(C(=O)O)C7(CC7)C6)c(OC)n5)c4Cl)cccc32)c(Cl)cc1CNC[C@@H]1CCC(=O)N1 (stereo partly drawn)", "outputUnit": "nM", "reportedValue": 0.064}
{"compound": "COc1nc(-c2cccc(-c3cccc4c3CC[C@@H]4Oc3nc(OC)c(CNCC(=O)N(C)C)cc3C(F)(F)F)c2Cl)ccc1CNC[C@@H]1CCC(=O)N1", "outputUnit": "nM", "reportedValue": 0.097}

Now, please, on to the next compound.
[ask] Need IC50, item COc1nc(-c2cccc(-c3cccc4c3CC[C@@H]4Oc3nc(OC)c(CN4CC5(CC(C(=O)O)C5)C4)cc3Cl)c2Cl)ccc1CNC[C@@H]1CCC(=O)N1
[reply] 0.064

* * *

The compounds listed here are annotated with their log10 AC50.
- testedTarget: PD-L1 (Homo sapiens (Human), UniProt Q9NZQ7)
- Sequence (Q9NZQ7 19-238): as above
- Sequence (Q9NZQ7 19-238): as above
- testMethodNotes: PD-L1/PD-L1 dimerization biochemical protein-protein interaction assay (ALPHA)
- Format: binding
- measurementSetup: 0.5 nM His tagged PD-L1 and 0.5 nM FLAG tagged PD-L1, Table 4B, read-out: AC50 PDL1 Dimer 1 nM
On a log10 scale: recorded AC50, unit nM.

{"compound": "COc1nc(-c2cccc(-c3cccc4c3CC[C@@H]4Oc3nc(OC)c(CNC(C)(C)C(=O)O)cc3C(F)(F)F)c2Cl)ccc1CNC[C@@H]1CCC(=O)N1 [B-12]", "log10 AC50": 0.05}
{"compound": "COc1cc(O[C@H]2CCc3c(-c4cccc(-c5ccc(CNC[C@@H]6CCC(=O)N6)c(OC)n5)c4Cl)cccc32)c(C(F)(F)F)cc1CN1CC2CCC1C(C(=O)O)C2 (some centres unmarked) [B-224]", "log10 AC50": 1.03}
{"compound": "COc1nc(-c2cccc(-c3cccc4c3CC[C@@H]4Oc3nc(OC)c(CN4CC[C@H](C(=O)O)C4)cc3Cl)c2Cl)ccc1CNC[C@@H]1CCC(=O)N1 [B-114]", "log10 AC50": 1.32}
{"compound": "COc1nc(-c2cccc(-c3cccc4c3CC[C@@H]4Oc3nc(OC)c(CN4CC5(C(=O)O)CCC4CC5)nc3C)c2Cl)ccc1CNC[C@@H]1CCC(=O)N1 [B-149]", "log10 AC50": 1.51}
{"compound": "COc1nc(-c2cccc(-c3cccc4c3CC[C@@H]4Oc3nc(OC)c(CN4CC5CCCC4(C(=O)O)C5)cc3Cl)c2Cl)ccc1CNC[C@@H]1CCC(=O)N1 (some centres unmarked) [B-181]", "log10 AC50": 1.28}
{"compound": "CNC(=O)C1CCN(Cc2ccc(-c3cccc(-c4cccc5c4CC[C@@H]5Oc4nc(OC)c(CN5CCC(C(=O)NC)C5)cc4Cl)c3Cl)nc2OC)C1 (some centres unmarked) [B-87]", "log10 AC50": 1.96}
{"compound": "CC[C@H](NCc1cc(C(F)(F)F)c(O[C@H]2CCc3c(-c4cccc(-c5ccc(CNC[C@@H]6CCC(=O)N6)c(OC)n5)c4Cl)cccc32)nc1OC)C(=O)O [B-269]", "log10 AC50": 0.79}
{"compound": "COc1nc(-c2cccc(-c3cccc4c3CC[C@@H]4Oc3nc(OC)c(CN4CC5(CC(C(=O)O)C5)C4)cc3Cl)c2Cl)ccc1CNC[C@@H]1CCC(=O)N1 [B-24]", "log10 AC50": 1.29}

[ask] # query: log10 AC50 of entry COc1nc(-c2cccc(-c3cccc4c3CC[C@@H]4Oc3nc(OC)c(CNC(C)(C)CC(=O)O)cc3Cl)c2Cl)ccc1CNC[C@@H]1CCC(=O)N1 [B-197]
[reply] 1.10

[ask] Please give the result for COc1cc(O[C@H]2CCc3c(-c4cccc(-c5ccc(CNC[C@@H]6CCC(=O)N6)c(OC)n5)c4Cl)cccc32)c(C(F)(F)F)cc1CNC(C)(C)C(=O)O [B-219] too.
[reply] 0.41

* * *

- testedTarget: UniProt:Q9NZQ7
- testMethodNotes: PD-L1/PD-L1 dimerization biochemical protein-protein interaction assay (ALPHA)
- Assay type: binding
- measurementSetup: 0.5 nM His tagged PD-L1 and 0.5 nM FLAG tagged PD-L1, Table 4A, read-out: AC50 PDL1 Dimer 1 nM
Hi! Could you tag entries with AC50 below 0.02 µM as YES, and those at or above as NO? Much appreciated.

Reference set, count: 5
{"inputSmiles": "COc1nc(-c2cccc(-c3cccc4c3CC[C@@H]4Nc3nc(OC)c(CN4CC[C@@H](C(=O)O)C4)cc3C(F)(F)F)c2Cl)ccc1CNC[C@@H]1CCC(=O)N1", "assignedCategory": "YES"}
{"inputSmiles": "COc1nc(-c2cccc(-c3cccc4c3CC[C@@H]4Nc3nc(OC)c(CNCC(=O)O)nc3C(F)(F)F)c2Cl)ccc1CNC[C@H]1C[C@H](O)C1", "assignedCategory": "YES"}
{"inputSmiles": "COc1nc(-c2cccc(-c3cccc4c3CC[C@@H]4Nc3nc(OC)c(CN4CCC[C@@]4(C)C(=O)O)cc3C(F)(F)F)c2Cl)ccc1CNC[C@@H]1CCC(=O)N1", "assignedCategory": "YES"}
{"inputSmiles": "COc1cc(N[C@H]2CCc3c(-c4cccc(-c5ccc(CNC[C@@H]6CCC(=O)N6)c(OC)n5)c4Cl)cccc32)c(C(F)(F)F)nc1CN1CC[C@@H](C(=O)O)C1", "assignedCategory": "YES"}
{"inputSmiles": "COc1cc(N[C@H]2CCc3c(-c4cccc(-c5ccc(CNC[C@@H]6CCC(=O)N6)c(OC)n5)c4Cl)cccc32)c(Cl)cc1CN1CC2(C(=O)O)CCC1CC2", "assignedCategory": "NO"}

Note: attention shifts to another entry.
[ask] # strict comparison: is reported AC50 < 0.02 µM? input = COc1nc(-c2cccc(-c3cccc4c3CC[C@@H]4Nc3nc(OC)c(CNC4(C(=O)O)CC4)nc3C(F)(F)F)c2Cl)ccc1CNC[C@H]1C[C@](C)(O)C1
[reply] NO
